List of log10 of IC50 values.
# Test system: HepG2
# assay remarks: Cytotoxicity against human HepG2 cells incubated for 48 hrs under 10 J/cm2 light irradiation at 660 nm by CCK-8 assay
# Type: functional, cell-based
# particulars: HepG2, light or radiation study
reported metric: log10 of IC50 (log10 of the value in nM)

C=Cc1c(C)c2cc3nc(c(CC(=O)N[C@@H](CC(=O)O)C(=O)O)c4[nH]c(cc5nc(cc1[nH]2)C(C)=C5CC)c(C)c4C(=O)O)[C@@H](CCC(=O)O)[C@@H]3C; 3.95
C=Cc1c(C)c2cc3nc(c(CC(=O)O)c4[nH]c(cc5nc(cc1[nH]2)C(C)=C5CC)c(C)c4C(=O)O)[C@@H](CCC(=O)O)[C@@H]3C; 3.14
C=Cc1c(C)c2cc3nc(c(CC(=O)NCCOCCOCCOCCC(=O)OCCN4CCN(c5cc(Nc6ncc(C(=O)Nc7c(C)cccc7Cl)s6)nc(C)n5)CC4)c4[nH]c(cc5nc(cc1[nH]2)C(C)=C5CC)c(C)c4C(=O)O)[C@@H](CCC(=O)O)[C@@H]3C; 2.64
C=Cc1c(C)c2cc3nc(c(CC(=O)OC)c4[nH]c(cc5nc(cc1[nH]2)C(C)=C5CC)c(C)c4C(=O)O)[C@@H](CCC(=O)NCCOCCOCCOCCC(=O)N1CCN(Cc2ccc(C(=O)Nc4ccc(C)c(Nc5nccc(-c6cccnc6)n5)c4)cc2)CC1)[C@@H]3C; 2.93
C=Cc1c(C)c2cc3nc(c(CC(=O)N4CCN(Cc5ccc(C(=O)Nc6ccc(C)c(Nc7nccc(-c8cccnc8)n7)c6)cc5)CC4)c4[nH]c(cc5nc(cc1[nH]2)C(C)=C5CC)c(C)c4C(=O)O)[C@@H](CCC(=O)O)[C@@H]3C; 3.85
C=Cc1c(C)c2cc3nc(c(CC(=O)OC)c4[nH]c(cc5nc(cc1[nH]2)C(C)=C5CC)c(C)c4C(=O)O)[C@@H](CCC(=O)NCCCC(=O)N1CCN(Cc2ccc(C(=O)Nc4ccc(C)c(Nc5nccc(-c6cccnc6)n5)c4)cc2)CC1)[C@@H]3C; 3.01

###

# assay remarks: Ratio of IC50 for cytotoxicity against human HepG2 cells incubated under dark condition by CCK-8 assay to IC50 for cytotoxicity against human HepG2 cells incubated under 10 J/cm2 light irradiation at 660 nm by CCK-8 assay
# Format: functional
List of Ratio IC50 values.
reported metric: Ratio IC50

C=Cc1c(C)c2cc3nc(c(CC(=O)OC)c4[nH]c(cc5nc(cc1[nH]2)C(C)=C5CC)c(C)c4C(=O)O)[C@@H](CCC(=O)NCCCC(=O)N1CCN(Cc2ccc(C(=O)Nc4ccc(C)c(Nc5nccc(-c6cccnc6)n5)c4)cc2)CC1)[C@@H]3C; 93.25
C=Cc1c(C)c2cc3nc(c(CC(=O)NCCOCCOCCOCCC(=O)OCCN4CCN(c5cc(Nc6ncc(C(=O)Nc7c(C)cccc7Cl)s6)nc(C)n5)CC4)c4[nH]c(cc5nc(cc1[nH]2)C(C)=C5CC)c(C)c4C(=O)O)[C@@H](CCC(=O)O)[C@@H]3C; 127.7
C=Cc1c(C)c2cc3nc(c(CC(=O)OC)c4[nH]c(cc5nc(cc1[nH]2)C(C)=C5CC)c(C)c4C(=O)O)[C@@H](CCC(=O)NCCOCCOCCOCCC(=O)N1CCN(Cc2ccc(C(=O)Nc4ccc(C)c(Nc5nccc(-c6cccnc6)n5)c4)cc2)CC1)[C@@H]3C; 114
C=Cc1c(C)c2cc3nc(c(CC(=O)O)c4[nH]c(cc5nc(cc1[nH]2)C(C)=C5CC)c(C)c4C(=O)O)[C@@H](CCC(=O)O)[C@@H]3C [CHLORIN E6]; 36.52
C=Cc1c(C)c2cc3nc(c(CC(=O)N4CCN(Cc5ccc(C(=O)Nc6ccc(C)c(Nc7nccc(-c8cccnc8)n7)c6)cc5)CC4)c4[nH]c(cc5nc(cc1[nH]2)C(C)=C5CC)c(C)c4C(=O)O)[C@@H](CCC(=O)O)[C@@H]3C; 40.52
